Test system: OVCAR-3
ASSAY OVERVIEW: NCI tumour cell line growth inhibition, 48 h
Active and inactive are the calls of the source. Rule as the data show it: active = GI50 up to about 1.1 µM and inactive = higher.
MEASURE: GI50

Solved entries (count: 6):
Please give measured GI50 of the following entry: "O=C(NCCCl)N(O)C(=O)Nc1ccccc1"
> 100 µM (inactive)

Report GI50, nothing else, for this compound: c1ccc2c(c1)SC1Sc3ccccc3[S+]21 (configuration not stated)
19.5 µM (inactive)

Dear colleague, please send me the reported GI50 for COc1ccc(-c2c(C#N)c(=O)nc(SC)n2C2OCC(OC(C)=O)C(OC(C)=O)C2OC(C)=O)cc1 (configuration not stated) when you can.
> 100 µM (inactive)

Provide only the value of recorded GI50 for "CCOC(=O)c1ccc(/N=C2/C(=S)N(c3ccc(C(=O)OCC)cc3)C(=N)N2/N=C/c2ccccc2)cc1"
13.1 µM (inactive)

Retrieve GI50 measured for "CCOC(=O)NC(=O)c1cn(-c2ccc(CCOC(=O)NCCCCCCNC(=O)OCCc3ccc(-n4c(=O)[nH]cc(C(=O)NC(=O)OCC)c4=O)cc3)cc2)c(=O)[nH]c1=O" and print it.
> 100 µM (inactive)

Look up and state reported GI50 for "Brc1ccc2[nH]cc([C@H]3CN[C@@H](c4c[nH]c5ccc(Br)cc45)CN3)c2c1"
1.79 µM (inactive)

---
Report GI50, nothing else, for this compound: "Cc1ccc(C)c2sc3cc(=O)ccc-3nc12"
43.3 µM (inactive)

###

Test system: RXF 393
ASSAY OVERVIEW: NCI tumour cell line growth inhibition, 48 h
Activity calls are given as the source filed them. Cut-off read from the data, not from the text of the source: active = GI50 up to about 1.1 µM and inactive = higher.
MEASURE: GI50

Give GI50 for ClC1(Cl)C(c2ccccc2)C1c1ccccc1 (stereo not drawn)
14.4 µM (inactive)

Could you please provide reported GI50 for "C=C1C(=O)C2=C[C@H]1C[C@H](O)C(=O)[C@]1(C)CCCC(C)(C)[C@H]1C[C@H]2O" ? Thanks!
0.315 µM (active)

For the compound "CO[C@H]1C[C@H](O[C@H]2CC[C@]3(C=O)[C@H]4CC[C@]5(C)[C@@H](C6=CC(=O)OC6)CC[C@]5(O)[C@@H]4CC[C@]3(O)C2)O[C@H](C)[C@H]1O[C@@H]1O[C@H](CO[C@@H]2O[C@H](CO)[C@@H](O)[C@H](O)[C@H]2O)[C@@H](O)[C@H](O)[C@H]1O" , give its reported GI50.
0.0251 µM (active)

For CC(C)NC(C)Cc1ccccc1 (stereo not drawn) , write its GI50.
> 100 µM (inactive)

// next entry
Specify GI50 for "CCCCC(=O)c1c(O)ccc2c(C)cc(=O)oc12" and stop.
49.1 µM (inactive)

###

Tested on: SNB-19
ASSAY OVERVIEW: NCI tumour cell line growth inhibition, 48 h
The source made the active and inactive calls. Rule as the data show it: active = GI50 up to about 1.1 µM and inactive = higher.
MEASURE: GI50

// fetch GI50; item: "CC(=O)OCCCCn1cnc2nc(Nc3ccccc3)nc(Cl)c21" ; system: SNB-19
> 100 µM (inactive)

Report GI50 on SNB-19 for this entry: "Cc1csc(=S)n1OC(=O)NC1CCCCC1"
> 100 µM (inactive)

Fill in: GI50 on SNB-19, entry "Cc1cccc2c1NC(=O)/C2=N\Nc1ccccc1[N+](=O)[O-]"
30.5 µM (inactive)

# assay system SNB-19: give GI50 of "O=[N+]([O-])c1cc(C2(N3CCCCC3)CCCCC2)sc1Br"
14.1 µM (inactive)

Using SNB-19 as the test system, report measured GI50 of "C[C@]12CC[C@H]3[C@@H](CCC4=C[C@@H](N5CCCC5)CC[C@@]43C)[C@@H]1C/C(=C\c1ccncc1)[C@@H]2O" .
14.5 µM (inactive)

Find GI50 for "O=[N+]([O-])c1ccc(CN(CCCl)OCCCl)cc1" on SNB-19 and write it down.
> 100 µM (inactive)

---
Under SNB-19: report GI50 of COC(=O)C1C=CCC2CCCCC21N1CCCC1 (stereo not given) .
82.2 µM (inactive)

// fetch GI50; item: COP1(=O)NCc2ncccc2O1 (stereo not given) ; system: SNB-19
> 100 µM (inactive)

Enter recorded GI50 with SNB-19 for OC1(c2ccc(Cl)cc2)C(N2CCCC2)c2ccccc2C2=NCCN21 (stereo not given) here.
54.3 µM (inactive)

// fetch GI50; item: "CCCCC1=C(Br)C(=C(Br)Br)OC1=O" ; system: SNB-19
7.89 µM (inactive)

###

System: SN12C
ASSAY OVERVIEW: NCI tumour cell line growth inhibition, 48 h
Activity calls are given as the source filed them. Cut-off read from the data, not from the text of the source: active = GI50 up to about 1.1 µM and inactive = higher.
In this exercise, the only acceptable responses are active, inactive

Field: example entries. Status: answers known.
Which outcome was assigned to "Cc1ccc(C)c2sc3cc(=O)ccc-3nc12" in this test?
inactive

Call for entry "CO[C@H]1C[C@H](O[C@H]2CC[C@]3(C=O)[C@H]4CC[C@]5(C)[C@@H](C6=CC(=O)OC6)CC[C@]5(O)[C@@H]4CC[C@]3(O)C2)O[C@H](C)[C@H]1O[C@@H]1O[C@H](CO[C@@H]2O[C@H](CO)[C@@H](O)[C@H](O)[C@H]2O)[C@@H](O)[C@H](O)[C@H]1O" :
active

How did this test come out for "COC(OC)[C@@H]1OC[C@@H](O)[C@@H]1n1cnc2c(N)ncnc21" ?
inactive

Let's switch to this compound now.
Could you kindly confirm the outcome this assay logged for "Cc1ccc(C)n2c1nc1ccc3ccccc3c12" ?
inactive

###

Test system: TK-10
ASSAY OVERVIEW: NCI tumour cell line growth inhibition, 48 h
The source made the active and inactive calls. No stated cut-off is given here; in the data, active = GI50 up to about 1.1 µM and inactive = higher.
MEASURE: GI50

Find the measured GI50 of "C=Cc1c(C)c(OC)cc2c1Oc1ccc(OC)c(C)c1CC2" and report it.
> 100 µM (inactive)

Give GI50 for "CCOC(=O)NC(=O)c1cn(-c2ccc(CCOC(=O)NCCCCCCNC(=O)OCCc3ccc(-n4c(=O)[nH]cc(C(=O)NC(=O)OCC)c4=O)cc3)cc2)c(=O)[nH]c1=O"
58.3 µM (inactive)

Kindly indicate its recorded GI50. Item: "S=C(N/N=C(\C(=N/NC(=S)N1CCCCC1)c1ccccn1)c1ccccn1)N1CCCCC1"
19.4 µM (inactive)

For the molecule "Cc1cc(N(CCC#N)CCC#N)ccc1/C=N/NC(=O)c1cc(Cl)ccc1O" , give its measured GI50 value.
> 100 µM (inactive)

State its GI50 for this molecule: "CCOC(=O)C1(C(=O)OCC)CCCN1C(=O)[C@H](CNC(=O)OC(C)(C)C)NC(=O)OCc1ccccc1"
> 100 µM (inactive)

Now consider a different molecule.
Tell us which GI50 value is on record for "O=C1/C(=C/c2ccc(O)c(O)c2)CCC/C1=C\c1ccc(O)c(O)c1"
3.79 µM (inactive)

###

Listing of entries alongside the reported GI50.
Tested on: SF-268
ASSAY OVERVIEW: NCI tumour cell line growth inhibition, 48 h
The source made the active and inactive calls. No stated cut-off is given here; in the data, active = GI50 up to about 1.1 µM and inactive = higher.

Return reported GI50. Input molecule: CCCCC(NC(=O)CC)C(=O)O (stereo not drawn)
> 100 µM (inactive)

Give GI50 for "CN1CCN(Cc2nc3c(s2)CCc2sccc2-3)CC1"
82.6 µM (inactive)

Continue with the next molecule.
Give the value of GI50 reported for the following: "COC(=O)c1sc(=O)sc1SCc1cccc(CSc2sc(=O)sc2C(=O)OC)c1"
27.3 µM (inactive)

###

Each entry below carries its recorded GI50.
Tested on: ACHN
ASSAY OVERVIEW: NCI tumour cell line growth inhibition, 48 h
Calls of active or inactive are those of the source. No stated cut-off is given here; in the data, active = GI50 up to about 1.1 µM and inactive = higher.

Identify GI50 associated with the molecule "CCCn1c(C23CC4CC(CC(C4)C2)C3)nc2ccc(Cl)cc2c1=O"
21.2 µM (inactive)

Further cases:
Read the entry CC(C)(C)c1ccc(OC2CCO2)cc1 (stereo not given) and write its reported GI50.
34.5 µM (inactive)

###

Test system: DLD-1
ASSAY OVERVIEW: NCI tumour cell line growth inhibition, 48 h
Calls of active or inactive are those of the source. Cut-off read from the data, not from the text of the source: active = GI50 up to about 1.1 µM and inactive = higher.
Below, each of the compounds is paired with its reported GI50 value.

For the compound "NC(=S)N/C=C1\C(=O)Oc2ccccc2C1=O" , give its measured GI50 value.
31.2 µM (inactive)

Return value of GI50 for input "CCOC(=O)C1=C(Nc2ccc(Br)cc2)OC/C1=N\NC(=O)c1ccccc1O" , no commentary.
18 µM (inactive)

Please give the documented GI50 of "O=C1[C@@H]2C(c3ccccc3[N+](=O)[O-])=NO[C@@H]2C(=O)N1c1ccc(Cc2ccc(N3C(=O)[C@H]4C(c5ccccc5[N+](=O)[O-])=NO[C@H]4C3=O)cc2)cc1"
> 100 µM (inactive)

Provide measured GI50 value, entry: COc1ccccc1/C=C1\CCC(CN(C)C)C1=O (stereo unspecified)
2.2 µM (inactive)

Write down GI50 measured for item O=C1OC(c2cccc(C(F)(F)F)c2)c2ccc3ccccc3c21 (stereo unspecified)
4.79 µM (inactive)
